Reference for the values: patent US20120135923A1

biological target: T1, human melanocortin receptor subtype 5 (hMC5-R) (human, UniProt P33032 1-325); assay: [125I]-NDP-α-MSH competition, membranes
T1 construct: whole, on cells; membranes of CHO-K1 cells
T1 sequence (P33032 whole entry): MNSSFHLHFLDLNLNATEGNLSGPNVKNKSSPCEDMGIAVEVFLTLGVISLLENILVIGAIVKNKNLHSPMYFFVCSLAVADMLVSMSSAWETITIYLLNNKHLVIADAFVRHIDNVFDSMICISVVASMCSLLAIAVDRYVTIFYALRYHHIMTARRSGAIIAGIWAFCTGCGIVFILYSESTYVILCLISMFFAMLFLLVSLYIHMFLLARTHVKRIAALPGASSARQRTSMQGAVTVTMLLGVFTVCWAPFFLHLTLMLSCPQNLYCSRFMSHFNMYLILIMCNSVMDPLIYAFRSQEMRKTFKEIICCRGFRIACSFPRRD
Bridge positions count the residues as written; N and C are the ends. Square brackets hold non-standard residues; d marks the D form. Ends that are not written are not given here. 1Nal = N[C@@H](Cc1cccc2ccccc12)C(=O)O; 2Nal = N[C@@H](Cc1ccc2ccccc2c1)C(=O)O; d2Nal = N[C@H](Cc1ccc2ccccc2c1)C(=O)O; Bta = N[C@@H](Cc1csc2ccccc12)C(=O)O; βAla = NCCC(=O)O
Ki values, listed per item
// units = nM; emit number, no label

Check out these entries, answers already filled in.
1. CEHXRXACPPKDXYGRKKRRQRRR (N-terminal Ac; D-2-Nal at 4; Bal at 6; β-Ala at 13; disulfide Cys1-Cys8; C-terminal NH2) :: 15.3
2. Ac-CEH[d2Nal]R[1Nal]ACPPKD[βAla]RRRRRRQRRR-NH2 (disulfide 1-8) [Ac-c(Cys-Glu-His-D-2-Nal-Arg-1-Nal-Ala-Cys)-Pro-Pro-Lys-Asp-β-[…]NH2] :: 88.8
3. Ac-CEH[d2Nal]R[2Nal]ACPPKD[βAla]RRRRRQRRR-NH2 (disulfide 1-8) [Ac-c(Cys-Glu-His-D-2-Nal-Arg-2-Nal-Ala-Cys)-Pro-Pro-Lys-Asp-β-[…]NH2] :: 9.17
4. RGCEH[dF]RWC-NH2 (disulfide 3-9; also: hydantoin ring from C(O) with Arg1-Gly2) [Hydantoin(C(O)-(Arg-Gly))-c(Cys-Glu-His-D-Phe-Arg-Trp-Cys)-NH2] :: 7760
5. Ac-CEH[d2Nal]R[Bta]ACPPKD[βAla]RRRRRQRRR-NH2 (disulfide 1-8) :: 38.3

Using the record for Ac-CEH[d2Nal]R[Bta]ACPPKD[βAla]RRRRRRQRRR-NH2 (disulfide 1-8) , report its Ki.
84

How about this binder: Ac-CEH[d2Nal]R[Bta]ACPPKD[βAla]GRRRRRQRRR-NH2 (disulfide 1-8)
165
